Here the recorded Neutralizing activity (%) at 250 µg/ml is given for each entry.
Assayed target: Influenza virus A/Panama/2007/1999 (H3N2) (Influenza A virus A/Panama/2007/1999 (H3N2))
Assay: cell-based or functional assay
Answer with a number only, understood to be in %.

Field: example entries. Status: answers known.
Group 48 representative clone F083-389, Fab-PP-type antibody (Fab, V domains shown) VH: QVQLVQSGAEVKKPGSSVKVSCKASGDIFNKFAITWVRQAPGQGLEWMGGITALFATTSYAQKFQDRVTINWDESTTTAFMELSSLRFEDTAVYYCARGPNYYETYLDNWGQGTLVTVSS VL: EIVLTQSPTILSASVGDRVTITCRASQSISKWLAWYQQKPGKVPKLLIYMASTLESGVPSRFSGSGSGSEFTLTISSLQPGDFATYYCQQYNSYPRTFGQGTKVEINV ... 19.9
Group 39 representative clone F082-237, Fab-PP-type antibody (Fab, V domains shown) VH: QVQLVQSGAEVKKPGSSVKVSCKASGGIFNKYGISWVRQAPGQGLEWMGGILAIFGTTNYAQKFQGRVTISADESSTTVYMELSSLTSEDTAVYYCARGNTYYSSYFDQWGQGTLVTVSS VL: QSVLTQPPSVSVAPGQTATITCGGDKIGTGPVHWYQQMPGRAPVLLIYASTHRPSRIPERFSGSKSDNTATLSISGVGVGDEADYYCQMWDSSSVHPIVFGGGTKLTVLS ... 15.8
Group 55 representative clone F083-305, Fab-PP-type antibody (Fab, V domains shown) VH: EVQLVESGAEVKKPGSSVKVSCKASGSIFSNYAISWVRQAPGQGLEWMGGIVPMFGTTRFAQKFQGRVTITADESRSTAYMELNNLISEDTAVYYCARAPLIYNWYFDLWGRGTLVTVSS VL: EIVLTQSPSFVSASVGDRVSITCRASQGISSWLAWYQQKPGKAPRLLIYGASNLQSGVPSRFSGSGSGTDYTLTINSLQPEDFATYYCQQARTFPVTFGQGTKLEIK ... -6.8
Group 51 representative clone F083-302, Fab-PP-type antibody (Fab, V domains shown) VH: QVQLVQSGAEVKKPGSSVKVSCEASGATFSSNAFSWVRQAPGQGPEWMGGIITMFRKAEYAQKFQGRVTITAGELGSTAYMEVRSLTFEDTAVYYCARHSGYHLIGYFDSWGQGTLVTVSS VL: QSVLTQPPSVSAAPGQKVTISCSGTTSNIGNNYVSWYQQLPGAAPKLLIYDNNKRPSGIPDRFSGSKSDTSATLGITGLQTGDEADYYCGTWVSSLSVWVFGGGTKLTVLG ... -11
Group 65 representative clone F083-366, Fab-PP-type antibody (Fab, V domains shown) VH: QVQLVQSGSEVKKPGSSVKVSCKASRGIFSSYAISWVRQAPGQGLEWMGAVIPMFGTLKYAENFQGRITISADKSMSAAYMELSSLRSEDTAVYYCARNYYGSGTYFNDAFDIWGQGTMVTVSS VL: QSVLTQPPSGSGAPGQRVTISCTGGNSNIGAGYDVNGYQQLPGKAPKLLIYGNNNRPSGVPDRFSGSKSGTSASLAITGLQVEDEAHYYCQSYDNGLSGSVFGGGTQLTVLG ... -6.8

--- query ---
Query Group 52 representative clone F083-328, Fab-PP-type antibody (Fab, V domains shown) VH: QVQLVQSGAEVKKPGSSVKLSCKASGGTLRSYALSWVRQAPGEGLEWMGGISAIFNTATYAQNVQGRVTITADESTNTFYLEVSSLRSDDTAVYYCATSGTYYVSFFDYWGQGTLVTVSS VL: DIVLTQSPSTLSASVGDRVTLTCRASQSIGSLMAWYQQQPGKPPKLLIYRASNLETGVPSRFTGSGSGTEFALTISSLQPDDVGTYYCQHFKTFSRTFGQGTKVEIK yields Neutralizing activity (%) at 250 µg/ml of 5.5
